Test system: F11
Experiment: Blockade of delayed rectifier potassium channel in mouse rat hybrid F11 cells at 90 uM by whole-cell patch clamp technique
Assay type: cell-based
// label = fulfilled if Activity is not less than 70%, otherwise not fulfilled

{"SMILES_CODE": "COc1ccc(CCc2cc(OC)cc(OC)c2)cc1", "TARGET_OR_SYSTEM": "F11", "ASSIGNED_CATEGORY": "not fulfilled"}
{"SMILES_CODE": "Oc1ccc(/C=C/c2cc(O)cc(O)c2)cc1", "TARGET_OR_SYSTEM": "F11", "ASSIGNED_CATEGORY": "not fulfilled"}
{"SMILES_CODE": "Oc1cc(O)cc(CCc2ccc(OCc3ccccc3)cc2)c1", "TARGET_OR_SYSTEM": "F11", "ASSIGNED_CATEGORY": "fulfilled"}
{"SMILES_CODE": "Oc1cc(CCc2ccc(OCc3ccccc3)cc2)cc(OCc2ccccc2)c1", "TARGET_OR_SYSTEM": "F11", "ASSIGNED_CATEGORY": "not fulfilled"}
{"SMILES_CODE": "COc1ccc(CCc2cc(O)cc(O)c2)cc1", "TARGET_OR_SYSTEM": "F11", "ASSIGNED_CATEGORY": "fulfilled"}

====

System: F11
Test: Blockade of delayed rectifier potassium channel in mouse rat hybrid F11 cells at 90 uM by whole-cell patch clamp technique
Format: cell-based

{"SMILES_CODE": "c1ccc(COc2ccc(CCc3cc(OCc4ccccc4)cc(OCc4ccccc4)c3)cc2)cc1", "RESULT_UNIT": "%", "Activity": 57}
{"SMILES_CODE": "Oc1ccc(CCc2cc(O)cc(OCc3ccccc3)c2)cc1", "RESULT_UNIT": "%", "Activity": 89}
{"SMILES_CODE": "Oc1ccc(CCc2cc(O)cc(O)c2)cc1", "RESULT_UNIT": "%", "Activity": 52}
